Values compiled from patent US5965560A.

- Assay system: human D2 receptor (DA D2) (Homo sapiens, UniProt P14416)
- Sequence (P14416 whole entry): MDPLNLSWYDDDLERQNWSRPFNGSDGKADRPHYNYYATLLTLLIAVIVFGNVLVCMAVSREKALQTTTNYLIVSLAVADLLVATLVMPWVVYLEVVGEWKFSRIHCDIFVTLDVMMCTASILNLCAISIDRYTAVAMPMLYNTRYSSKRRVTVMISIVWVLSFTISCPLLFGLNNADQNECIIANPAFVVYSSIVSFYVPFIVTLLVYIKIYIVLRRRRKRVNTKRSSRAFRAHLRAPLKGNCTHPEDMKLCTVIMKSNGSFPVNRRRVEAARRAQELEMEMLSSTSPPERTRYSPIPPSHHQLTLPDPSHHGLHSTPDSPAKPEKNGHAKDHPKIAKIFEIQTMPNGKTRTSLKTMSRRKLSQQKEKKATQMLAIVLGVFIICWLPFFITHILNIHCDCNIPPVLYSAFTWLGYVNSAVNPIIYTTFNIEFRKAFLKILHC
- Assay text: inhibition of [^3 H]spiperone binding to the human D2 receptor
- Details: human D2, [^3 H]spiperone
Counter-ions that a name gives are not always drawn.
Result type: Ki (nM)

Answered cases to consult:
Compound	Ki [nM]
COc1cccc(CN2CCN(c3cccc(C)c3Cl)CC2)c1OC [Example 26, monohydrochloride]	2900
COc1cc(CN2CCN(c3cccc(C)c3)CC2)cc(OC)c1OC [Example 7, monohydrochloride]	1460
COc1ccc(CN2CCN(c3cccc(C)c3Cl)CC2)cc1OC [Example 29, monohydrochloride]	2340
COc1cc(CN2CCN(c3cc(Cl)ccc3C)CC2)cc(OC)c1OC [Example 21, monohydrochloride]	1560

1. COc1cc(CN2CCN(c3ccc(C)cc3)CC2)cc(OC)c1OC [Example 8, monohydrochloride]
2. COc1ccc(OC)c(CN2CCN(c3cccc(C)c3Cl)CC2)c1 [Example 28, monohydrochloride]
3. COc1cc(CN2CCN(c3ccc(C)c(Cl)c3)CC2)cc(OC)c1OC [Example 20, monohydrochloride]
4. COc1ccc(CN2CCN(c3cccc(C)c3Cl)CC2)c(OC)c1 [Example 27, monohydrochloride]
Task field, ranking: reported Ki, descending order. Returns: the labels listed in the requested order.
3, 2, 1, 4
